Reference source for all entries: patent US9656953B2

Test System: Rb:Raf-1 binding (Homo sapiens, UniProt P04049+P06400)
Construct: a glutathione S-transferase (GST) Raf-1 (1-149aa) overnight at 4° C; made in house
Sequence (P04049 1-149 limits assumed): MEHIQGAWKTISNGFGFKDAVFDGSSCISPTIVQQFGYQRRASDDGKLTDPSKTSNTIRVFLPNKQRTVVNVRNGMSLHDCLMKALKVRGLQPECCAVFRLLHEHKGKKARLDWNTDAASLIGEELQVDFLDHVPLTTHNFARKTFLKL
Sequence (P06400 whole entry): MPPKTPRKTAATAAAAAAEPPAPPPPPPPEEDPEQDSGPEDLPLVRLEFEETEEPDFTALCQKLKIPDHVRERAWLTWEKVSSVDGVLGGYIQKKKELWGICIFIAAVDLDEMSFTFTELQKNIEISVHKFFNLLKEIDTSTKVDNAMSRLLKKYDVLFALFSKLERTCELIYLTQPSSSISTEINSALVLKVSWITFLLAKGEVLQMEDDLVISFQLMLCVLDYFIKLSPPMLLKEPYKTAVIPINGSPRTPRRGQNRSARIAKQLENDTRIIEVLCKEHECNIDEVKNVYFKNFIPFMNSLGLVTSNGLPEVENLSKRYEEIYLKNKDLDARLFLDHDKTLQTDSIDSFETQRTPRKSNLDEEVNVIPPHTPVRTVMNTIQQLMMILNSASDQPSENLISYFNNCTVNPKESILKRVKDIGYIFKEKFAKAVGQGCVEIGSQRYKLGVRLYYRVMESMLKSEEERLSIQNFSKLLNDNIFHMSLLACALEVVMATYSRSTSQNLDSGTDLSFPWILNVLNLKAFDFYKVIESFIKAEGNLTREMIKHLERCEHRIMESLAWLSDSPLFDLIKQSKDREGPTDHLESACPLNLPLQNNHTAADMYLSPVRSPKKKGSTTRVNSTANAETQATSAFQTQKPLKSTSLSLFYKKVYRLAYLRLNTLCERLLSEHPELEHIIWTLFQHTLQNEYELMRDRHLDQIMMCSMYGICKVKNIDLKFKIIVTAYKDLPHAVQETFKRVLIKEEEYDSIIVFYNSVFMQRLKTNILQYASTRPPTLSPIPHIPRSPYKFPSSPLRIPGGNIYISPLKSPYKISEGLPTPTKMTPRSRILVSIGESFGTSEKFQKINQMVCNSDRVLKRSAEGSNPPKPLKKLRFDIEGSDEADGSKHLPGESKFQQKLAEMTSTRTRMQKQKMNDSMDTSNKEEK
Assay Method Text: GST-Rb/GST-Raf-1 ELISA
Condition Notes: concentration that inhibits the Rb:Raf-1 binding by 50%, triplicate; read-out: IC50 (nM), inhibition of the Rb:Raf-1 binding
Measurement Kind: IC50 (nM)

Below, 3 compounds whose answers are already recorded.
# Compound, Observed Result
data = [
    ("N=C(N)SCc1ccc2ccccc2c1Br", 80),
    ("Nc1nnc(SCc2ccc(Cl)cc2Cl)[nH]1", 131),
    ("CC(SC(=N)N)c1ccc(Cl)c(Cl)c1 (stereo not shown)", 510),
]

[A] CCC(SC(=N)N)c1ccc(Cl)cc1Cl (stereo not shown)
[B] N=C(N)SCc1cc(Cl)ccc1Cl
Query string: When A and B are compared, which has the higher number for IC50? Output the label that corresponds to your choice.
Result string: B
(B: 2110 nM, A: 567 nM)

[I] N=C(N)NCc1ccc(Cl)cc1
[II] Cl.N=C(N)SCc1cccc(Cl)c1Cl
[III] N=C(N)SCc1ccncc1
[IV] N=C(N)SCc1ccc(Cl)cc1
Query string: Sort the 4 compounds by IC50; largest first, smallest last. Returns: the labels listed in the requested order.
Result string: III, I, IV, II
(III: 2630 nM, I: 539 nM, IV: 274 nM, II: 164 nM)

[1] CC(SC(=N)N)c1ccc(Cl)cc1Cl (stereo not shown)
[2] Cl.N=C(N)SCc1ccc(Cl)c(Cl)c1
Query string: I'd appreciate it if you could identify which of 1 and 2 has the greater IC50. Write down the label attached to your selection.
Result string: 2
